Reference for the values: PubChem BioAssay AID1159580

Test: chemical genetic growth profiling, strain panel (AID 1159580);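 further: tested at 20 µM; growth read once vehicle control cultures reached saturation at 30 °C; 1 = growth at the plate median or of vehicle wells; lower values mean less growth of the strain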
Conditions: S. cerevisiae deletion strains, growth OD, locus YCL069W, strain vba3, active compounds read low
The campaign covered roughly 5,500 compounds. About 2,000 (36%) were called active. Roughly 18% stayed inconclusive and do not appear here. Some of the results follow.
reported.metric: normalized growth
Give bare numbers.

Form field: reported normalized growth of Oc1ccc(Cl)cc1Cc1cc(Cl)ccc1O
0.0848

Form field: reported normalized growth of CC[C@H](C)C(=O)O[C@H]1C[C@@H](C)C=C2C=C[C@H](C)[C@H](CC[C@@H]3C[C@@H](O)CC(=O)O3)[C@H]21
1.01

Form field: reported normalized growth of CCOC(=O)c1ccc(O)cc1
1.01

Form field: reported normalized growth of OCc1ccccc1O
1

Could you tell me normalized growth for each of these compounds? They are listed below.
1. CC(C)(Oc1ccc(C2CC2(Cl)Cl)cc1)C(=O)O (stereo unspecified)
2. CC[C@H](C)C(=O)O[C@H]1CCC=C2C=C[C@H](C)C(CCC3C[C@@H](O)CC(=O)O3)[C@H]21 (stereo partly specified)
3. Cc1cc(NC(=O)C2=C(O)c3ccccc3S(=O)(=O)N2C)no1
4. CC(C)(C)CC(C)(C)c1ccc(O)c(Cc2ccc(Cl)cc2Cl)c1
5. O=c1cc(-c2ccccc2O)oc2cc(O)ccc12
6. CCC(C)(C)C(=O)O[C@H]1C[C@@H](C)C=C2C=C[C@H](C)[C@H](CC[C@@H]3C[C@@H](O)CC(=O)O3)[C@H]21

1.01
1
0.963
1.03
0.97
0.955

Form field: reported normalized growth of O=C(O)CN(CC(=O)O)Cc1cc2c(-c3ccccc3C(=O)O)c3cc(CN(CC(=O)O)CC(=O)O)c(=O)cc-3oc2cc1O
0.975

----------
Assay: chemical genetic growth profiling, strain panel (AID 1159580)
Conditions: S. cerevisiae deletion strains, growth OD, locus YDR054C, strain cdc34, active compounds read low
Hit rate of the full screen: of about 5,500 compounds, about 2,000 (36%) were called active. Roughly 18% stayed inconclusive and do not appear here. This is one part of the list.
reported.metric: normalized growth
Give bare numbers.

Could you tell me normalized growth for each of these compounds? They are listed below.
1. FC(F)(F)c1ccnc(N2CCCN(C(=S)Nc3ccc(Cl)cc3Cl)CC2)n1
2. Cc1ccc(NNC(=O)c2c(C)noc2C)cc1Cl
3. Cc1ccc(NS(=O)(=O)c2ccc(-c3csc(C)n3)s2)c(C)c1
4. Cc1c(C(=O)N(Cc2ccccc2)Cc2cccs2)cnn1-c1ccc(Cl)cc1
5. CCCCN(C)C(=O)c1cc([N+](=O)[O-])cc2c1-c1ccc([N+](=O)[O-])cc1C2=C(C#N)C#N
6. Cc1onc(-c2c(F)cccc2Cl)c1C(=O)NNc1cc(Cl)cc(Cl)c1
7. Cc1cccc(NC(=S)NNC(=O)CSCc2cccc3ccccc23)c1

0.976
0.993
0.975
0.987
0.98
0.982
0.983

Could you tell me normalized growth for each of these compounds? They are listed below.
1. CC(=O)ON=C1c2cc([N+](=O)[O-])ccc2-c2ccc([N+](=O)[O-])cc21
2. FC(F)(F)c1cccc(-n2c(CSCc3cccc4ccccc34)n[nH]c2=S)c1
3. Cc1ccc(NS(=O)(=O)c2ccc(Cl)cc2)c(N=Cc2cc(Cl)cc(Cl)c2O)c1

[0.942, 0.992, 0.929]

----------
Experiment: chemical genetic growth profiling, strain panel (AID 1159580)
Settings: S. cerevisiae deletion strains, growth OD, locus YDL101C, strain DUN1, active compounds read low
Screen size: about 5,500 compounds; about 2,000 (36%) were called active. Inconclusive results (about 18%) are left out. The list shows a part of the results.
reported.metric: normalized growth
Numbers only.

Could you tell me normalized growth for each of these compounds? They are listed below.
1. Cc1ccc(NS(=O)(=O)c2ccc(Cl)cc2)c(N=Cc2cc(Cl)cc(Cl)c2O)c1
2. C=C1CCC(C2CC(=O)OC2=O)C(=O)CCC2C1CC2(C)C (stereo unspecified)
3. CC(=O)Nc1ccc(S(=O)(=O)Nc2ccccc2Oc2ccc(Cl)cc2Cl)cc1

1. 0.968
2. 1.02
3. 1

Could you tell me normalized growth for each of these compounds? They are listed below.
1. O=C1OC(c2ccc(O)cc2)(c2ccc(O)cc2)c2ccccc21
2. Cc1ccc(NC(=O)c2c(F)cccc2Cl)c(C(=O)Nc2ccc(F)cc2)c1
3. Cc1ccc(NC(=O)c2ccccc2N=Cc2cc(Cl)cc(Cl)c2O)c(N=Cc2cc(Cl)cc(Cl)c2O)c1
4. NC(CO)C(=O)NNCc1ccc(O)c(O)c1O (stereo unspecified)
5. C=C1CCC2C(CC2(C)C)C(=O)CCC1O (stereo unspecified)
6. CCNC(=O)CC[C@H](N)C(=O)O
7. C/C1=C\CCC(=O)C2CC(C)(C)C2CC1 (stereo unspecified)
8. C=C1CCC2C(CC2(C)C)C(=C)CC/C1=N\O (stereo unspecified)

[0.98, 1.02, 0.962, 0.99, 1.03, 0.965, 1.03, 0.986]

----------
Assay: chemical genetic growth profiling, strain panel (AID 1159580);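 further: tested at 20 µM; growth read once vehicle control cultures reached saturation at 30 °C; 1 = growth at the plate median or of vehicle wells; lower values mean less growth of the strain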
Details: S. cerevisiae deletion strains, growth OD, locus YJL115W, strain asf1, active compounds read low
In all, about 5,500 compounds went through this assay and about 2,000 (36%) were called active. About 18% were inconclusive and are not listed. The list shows a part of the results.
reported.metric: normalized growth
Give bare numbers.

Check out these entries, answers already filled in.
Form field: reported normalized growth of O=C1OC2(c3ccc(O)cc3Oc3cc(O)ccc32)c2ccccc21
1.01

Form field: reported normalized growth of COc1c(OC)c2occc2c2oc(=O)ccc12
0.984

Form field: reported normalized growth of CCOC(=O)Nc1nc2ccccc2[nH]1
0.961

Could you tell me normalized growth for each of these compounds? They are listed below.
1. CC(C)NCC(O)c1cc(O)cc(O)c1 (stereo not given)
2. COc1ccc(-c2coc3cc(OC)cc(OC)c3c2=O)cc1

1. 0.977
2. 0.996

----------
Test: chemical genetic growth profiling, strain panel (AID 1159580);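 further: tested at 20 µM; growth read once vehicle control cultures reached saturation at 30 °C; 1 = growth at the plate median or of vehicle wells; lower values mean less growth of the strain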
Details: S. cerevisiae deletion strains, growth OD, locus YDR388W
Out of some 5,500 compounds screened, about 2,000 (36%) were called active. About 18% were inconclusive and are not listed. Rule as the data show it: active = normalized growth mostly below about 0.91 (no sharp cut-off); inconclusive = no clear call, values can overlap the other calls; inactive = mostly above about 0.92. The list shows a part of the results.
The reply should name one outcome from active, inactive

For COc1cc(-c2coc3cc(OCc4ccccc4)c(OC)c(O)c3c2=O)cc(O)c1OC , what call appears in the results of this test?
inactive

For Cc1cc(NC(=O)C2=C(O)c3ccccc3S(=O)(=O)N2C)no1 , what call appears in the results of this test?
inactive

***
For Nc1ccc(N=Nc2ccccc2)c(N)n1 , what call appears in the results of this test?
inactive

For COC(=O)C[C@H]1C(C)(C)C(=O)[C@@H]2CC3=C(CC[C@]4(C)C3=CC(=O)O[C@H]4c3ccoc3)[C@@]1(C)C2=O , what call appears in the results of this test?
inactive

----------
Experiment: chemical genetic growth profiling, strain panel (AID 1159580);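 further: tested at 20 µM; growth read once vehicle control cultures reached saturation at 30 °C; 1 = growth at the plate median or of vehicle wells; lower values mean less growth of the strain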
Details: S. cerevisiae deletion strains, growth OD, locus YHR094C, strain hxt1, active compounds read low
Among all 5,500 compounds or so, about 2,000 (36%) were called active. About 18% were inconclusive and are not listed. This is one part of the list.
For each of the compounds below, state its normalized growth.
One number for each entry.

Form field: reported normalized growth of CC(=O)OCC(COC(C)=O)OC(C)=O
1.01

Form field: reported normalized growth of CC(C)C(C)/C=C/C(C)[C@H]1CCC2C3=CCC4CC(=O)CC[C@]4(C)C3CC[C@@]21C (some centres undefined)
1.02

Form field: reported normalized growth of CC1(C)OC(=O)C=CC2(C)C1CC(O)C1(C)C2CCC2(C)C(c3ccoc3)OC(=O)C3OC321 (centres undefined)
1.02

Form field: reported normalized growth of C=C1C(=O)OC2CC1C(OC(C)=O)C/C(C)=C/CC/C(C)=C/CC[C@]2(C)O (some centres undefined)
1.01

Form field: reported normalized growth of COc1cc(-c2coc3cc(OCc4ccccc4)c(OC)c(O)c3c2=O)cc(OCc2ccccc2)c1OC
0.978

Form field: reported normalized growth of CC[N+](CC)(CC)CCOc1cccc(OCC[N+](CC)(CC)CC)c1OCC[N+](CC)(CC)CC
1.01

Form field: reported normalized growth of COc1c2ccoc2c(OC)c2oc(=O)ccc12
0.98

Form field: reported normalized growth of CCNC(=O)CC[C@H](N)C(=O)O
0.989

Could you tell me normalized growth for each of these compounds? They are listed below.
1. C=CCSCC1Nc2cc(Cl)c(S(N)(=O)=O)cc2S(=O)(=O)N1 (centres undefined)
2. C=C1C(=O)O[C@@H]2C[C@@]3(C)CCC[C@H](C)C3=C[C@H]12

1.02
0.942

Could you tell me normalized growth for each of these compounds? They are listed below.
1. C#CCCCCCCCCCCCC(O)CC(O)COC(C)=O (centres undefined)
2. COc1cc2occ(-c3ccccc3)c(=O)c2c(OC)c1C
3. COc1cc2c(cc1OC)C1Cc3ccc(OC)c(OC)c3CN1CC2 (centres undefined)
4. COc1ccc2c(c1)CCC(c1ccccc1)=C2c1ccc(OCCN2CCCC2)cc1

[0.97, 0.956, 0.978, 0.714]
